- testDescription: Clearance in BALB/c male mouse at 1 mg/kg, iv measured upto 24 hrs by LC-MS/MS analysis
- Format: ADME, organism-based
- assayContext: in vivo
quantity: clearance (mL/min/kg)
Output spec: scalar in mL/min/kg, unitless text.

# lookup: clearance of C=CC(=O)Nc1cccc(C)c1Nc1ncc(C#Cc2cccc(C(=O)Nc3ccc(CN4CCN(C)CC4)c(C(F)(F)F)c3)c2)cn1
67.9

----------
- Tested on: MDA-MB-231
- testDescription: cells
- assayContext: Homo sapiens, MDA-MB-231, 72 h
- Description: Antiproliferative activity against human MDA-MB-231 cells assessed as inhibition of cell proliferation incubated for 72 hrs by MTT assay
quantity: IC50 (µM)
Expressed in µM, but write only the number.

smilesStr | targetSystem | valueMeasured
C=CC(=O)Nc1cccc(C)c1Nc1ncc2cc(-c3c(Cl)c(OC)cc(OC)c3Cl)ccc2n1 | MDA-MB-231 | 4.26
C=CC(=O)Nc1cccc(C)c1Nc1ccc(C#Cc2cc(C(=O)Nc3ccc(CN4CCN(C)CC4)c(C(F)(F)F)c3)ccc2C)cn1 | MDA-MB-231 | 3.53
C=CC(=O)Nc1cccc(C)c1Nc1ncc(C#Cc2cccc(C(=O)Nc3ccc(CN4CCN(C)CC4)c(C(F)(F)F)c3)c2)cn1 | MDA-MB-231 | 5.6
C=CC(=O)Nc1ccccc1Nc1ncc(C#Cc2cc(C(=O)Nc3ccc(CN4CCN(C)CC4)c(C(F)(F)F)c3)ccc2C)cn1 | MDA-MB-231 | 2.24
C=CC(=O)Nc1cccc(C)c1Nc1ncc(C#Cc2cc(C(=O)Nc3ccc(CN4CCN(C)CC4)c(C(F)(F)F)c3)ccc2C)cn1 | MDA-MB-231 | 4.33

Quick one: IC50 for C=CC(=O)Nc1cccc(Cl)c1Nc1ncc(C#Cc2cc(C(=O)Nc3ccc(CN4CCN(C)CC4)c(C(F)(F)F)c3)ccc2C)cn1 ?
4.01

Fill in: IC50 of Cc1ccc(C(=O)Nc2ccc(CN3CCN(C)CC3)c(C(F)(F)F)c2)cc1C#Cc1cnc(Nc2c(C)cccc2NC(=O)/C=C/CN(C)C)nc1 is ___
1.25
